B1: HDV Ribozyme (parent)
chain: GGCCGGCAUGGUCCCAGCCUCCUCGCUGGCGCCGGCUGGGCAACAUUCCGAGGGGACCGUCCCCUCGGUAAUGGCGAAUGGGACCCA

Variants of: B1
Experiment: self-cleavage, relative activity (ratio to wild type); higher = more cleavage; co-transcriptional
metric: self-cleavage

| input-sequence | metric | reported-value |
| --- | --- | --- |
| GGACGGCAUGGUCCCAGCCUCCUCGGUGGCGCCGGCUGGGCAACAUUCCGAGGGGACCGUCCCCUCGGUAAUGGCGAAUGGGACCCA | self-cleavage | 0.415 |
| GGCCGGCAUGGUCCCAGCCUCCUCGCUGGCGCUGGCUGGGCAACAUUCCGAGGGGACCGUCCCCUCGGUUAUGGCGAAUGGGACCCA | self-cleavage | 0.755 |
| GGCCGGCAUGGUCCCAGCCUCCUCGCUGGCGCCAGCUGGGCAACAUUCCGAGGGGACCGUCCCCUCGGUAAUGGCGAAUGGGAGCCA | self-cleavage | 0.104 |
| GGCCGGCAUGGUCCCAGCCUCCUCGCUGGCGCCGGCUGGGCAACAUUCCGAGGGGACCGUCGCCGCGGUAAUGGCGAAUGGGACCCA | self-cleavage | 0.32 |
| GGCCGGCAUGGUCCCAGCCUCCUCGCUGGCGACGGCUGGGCAACAUUCCGAGGGGACCGUCCCCUAGGUAAUGGCGAAUGGGACCCA | self-cleavage | 0.181 |
| GGCCGGCAUGGUCCCAGCCUCCUCGCUGGCGCCGGCUGGGCAACAUUCCGAGGGGACCGUCCCCUCGGUUAUGGGGAAUGGGACCCA | self-cleavage | 0.231 |
| GGCCGGCAUGGUCCAAGCCUCCUCGCUGGCGCCGGCUGGGCAACAUUCCAAGGGGACCGUCCCCUCGGUAAUGGCGAAUGGGACCCA | self-cleavage | 0.527 |
| GGCCGGCAUGGUCCCAGCCUCCUCGCUGGCGCCGUCCGGGCAACAUUCCGAGGGGACCGUCCCCUCGGUAAUGGCGAAUGGGACCCA | self-cleavage | 0.428 |
| GGCCGGCAUGGUCCCAGCCUCCUCGCUGGCGCCGGCUGGGCAACAUUCCGAGGGGACCGUGCCCUCGGUAAUGGCCAAUGGGACCCA | self-cleavage | 0.967 |
| GCCCGGCAUGGUCCCAGCCUCCUCGCUGGCGCCGUCUGGGCAACAUUCCGAGGGGACCGUCCCCUCGGUAAUGGCGAAUGGGACCCA | self-cleavage | 0.0747 |
| GGCCGGCAUGGUCCCAGCCUCCUCGCUGGCGCCGGCUGGCCAACAUUCCGAGAGGACCGUCCCCUCGGUAAUGGCGAAUGGGACCCA | self-cleavage | 0.332 |
| GGCCUGCAUGGUCCCAGCCUCCUCGCUGGCGCCGGCUGGGCAACAUUCCGAGGGGACCGUCCCCUCGGUAAUGGCGAAUGGGACCAA | self-cleavage | 0.755 |
| GGCCGGCAUGGUACCAGCCUCCUCGCUGGCGCCGGCUGGGCAACAUUCCGAGGGGACCGUCCCCUCGGUAAUGGCGAAUGGGACCCU | self-cleavage | 0.157 |
| GGCCGGCAUGGUCCCAGCCUCCUCGCAGGCGCCGGCUGGGCAACAUUCCGAGUGGACCGUCCCCUCGGUAAUGGCGAAUGGGACCCA | self-cleavage | 0.798 |
| GGCCGGCAUGGUCCCAGCCUCCUCCCUGGCGCCGGCUGGGCAACAUUCCGGGGGGACCGUCCCCUCGGUAAUGGCGAAUGGGACCCA | self-cleavage | 0.237 |
| GGCCGGCAUGGUCCCAGCCUCCUCGCUGGCGCCGGCUGGGCAACGUUCCGAGGGGACCGUCCCCUCGGUAAUGGCGAAUGGGACCGA | self-cleavage | 0.95 |
| GGCCGGCGUGGUCCCAGCCUCCUCGCUGGCGCCGGCUGGGCAACAUUCCGAGGGGACCGUCCCCUCGGUAAUGGCGAUUGGGACCCA | self-cleavage | 0.266 |
| GGCCGGCAUGGUCCCAGCCUCCUCGCUGGCGCCGGCUGGCCAACCUUCCGAGGGGACCGUCCCCUCGGUAAUGGCGAAUGGGACCCA | self-cleavage | 0.0845 |
| GGCCGGCAUGGUCCCAGCCUCUUCGCUGGCGCCGGCUGGGCAACAUUCCGAGGGGACCGUCCCCUCGGUAAUGGCGAAUGGGACCCC | self-cleavage | 0.665 |
| GGCCGGCAAGGUCCCAGCCUCCUCGCUGGCGCCGGCUGGGCAACAUUCCGAGGGGACCGUCCCCUCGGUAAUGGCGAAUGGGACUCA | self-cleavage | 0.906 |
| GGCCGGCAUGGUCCCAGCCUCCUCGCUGGCGCCGGGUGGGCAACAUUCCGAGGGGACCGUCCCCUCGGUAAUGGCGAAUGGGACCGA | self-cleavage | 0.119 |
| GGCCGGUAUGGUCCCAGCCUCCUCGCUGGCGCCGGCUGGGCAACAUUCCGAGGGGACCGUCCCCUCGGUAAUGGCGAAUGGGACCAA | self-cleavage | 0.872 |
